I'd be grateful if you could share measured melting point for these entries.

Input line: For CCN(CCNC(=O)Nc1cccc2c1CC(O)CC2)c1cccc(C)c1 (stereo not shown) , what is its reported melting point?
Output line: 149 to 150 °C

Input line: Check O=C(NCCOc1ccccc1F)Nc1cccc2c1CC(O)CC2 (stereo not shown) too.
Output line: 131 to 136 °C

Input line: Check `O=C(NCCOc1ccc(F)cc1)Nc1cccc2c1C[C@H](O)CC2` too.
Output line: 111 to 113 °C

Input line: Check CN(CCCNC(=O)Nc1cccc2c1CC(O)CC2)c1ccccc1 (stereo not shown) too.
Output line: 125 to 126 °C

Input line: Check O=C(NCCOc1ccc(F)cc1)Nc1cccc2c1CC(O)CC2 (stereo not shown) too.
Output line: 167 to 169 °C

Input line: Check `O=C(NCCOc1ccc(F)cc1)Nc1cccc2c1C[C@@H](O)CC2` too.
Output line: 112 to 113 °C

Input line: Check `CCN(CCNC(=O)Nc1cccc2c1C[C@H](O)CC2)c1cccc(C)c1` too.
Output line: 143 to 144 °C

Input line: Check O=C(NCCOc1cc(C(F)(F)F)cc(C(F)(F)F)c1)Nc1cccc2c1CC(O)CC2 (stereo not shown) too.
Output line: 144 to 149 °C

Input line: Check Cc1cccc(N(C)CCNC(=O)Nc2cccc3c2CC(O)CC3)c1 (stereo not shown) too.
Output line: 160 to 162 °C

Input line: Check CCOC(=O)c1c(F)cccc1OCCNC(=O)Nc1cccc2c1CC(O)CC2 (stereo not shown) too.
Output line: 165 to 166 °C

Input line: Check O=C(NCCOc1ccccc1N1CCCCC1)Nc1cccc2c1CC(O)CC2 (stereo not shown) too.
Output line: 128 to 136 °C

Input line: Check `CCN(CCNC(=O)Nc1cccc2c1C[C@@H](O)CC2)c1cccc(C)c1` too.
Output line: 136 to 137 °C

Input line: Check COc1ccccc1OCCNC(=O)Nc1cccc2c1CC(O)CC2 (stereo not shown) too.
Output line: 182 to 184 °C

FYI, the data here is from patent US7423175B2.
